Test: Plasma concentration in nosocomial pneumonia patient at loading dose of 1 g and maintenance dose of 2 g administered daily for 3 days as continuous infusion measured after 72 hrs in presence of cilastatin
Assay type: ADME, organism-based
Details: human, iv
observation_type: concentration at 72 h (ng/mL)
# number only, unit ng/mL dropped from output

Task: Look at this compound and give its reported concentration at 72 h. C[C@@H](O)[C@H]1C(=O)N2C(C(=O)O)=C(SCCN=CN)C[C@H]12 [IMIPENEM ANHYDROUS]
Output: 8650
